Provenance of the data: patent US20230192824A1

Biological target: T1, CsbD, tip adhesin of CS17 fimbriae on wild type ETEC strain WS6788A (Escherichia coli (ETEC) strain WS6788A)
T1 chain: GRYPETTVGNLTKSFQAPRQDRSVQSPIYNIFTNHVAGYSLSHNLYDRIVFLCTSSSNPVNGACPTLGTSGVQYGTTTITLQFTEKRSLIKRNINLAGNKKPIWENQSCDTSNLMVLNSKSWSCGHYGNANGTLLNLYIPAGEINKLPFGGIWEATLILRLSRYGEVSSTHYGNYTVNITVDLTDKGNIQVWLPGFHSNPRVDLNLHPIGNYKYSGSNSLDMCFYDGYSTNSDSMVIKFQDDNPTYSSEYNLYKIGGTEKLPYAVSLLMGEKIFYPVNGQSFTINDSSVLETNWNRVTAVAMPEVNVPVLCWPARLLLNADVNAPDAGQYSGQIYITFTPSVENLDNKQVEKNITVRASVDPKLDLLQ
Test: cell-based or functional assay

{"BINDER": "anti-CfaE mouse mAb P8D10 (antibody, V domains shown, also called full length P8D10 mAb) VH: QIQLVQSGPELKKPGETVKISCKASGYTFTNYGMNWVKQAPGKGLKWMGWINTYTGQSTYADDFKGRFAFSLETSASTAHLQISNLKNEDAATYFCARMEYGNYENALDYWGQGTSVTVSS VL: DIVMTQSHKFMSTSIGDRVSITCKASQDVSTAVVWYQQKPGHSPKLLIYSASYRYTGVPDRFTGSGSGTDFTFTISSVQAEDLAVYYCLQHFSTPRTFGGGTNLEIK", "MIC in HAI": "> 250 µg/mL"}
{"BINDER": "anti-CfaE mouse mAb P1F9 (antibody, V domains shown) VH: QVQLQQPGAELVKPGASVKLSCKASGYTFTSYWMHWVRQRPGQGLDWIGEIDPSDSYINYNQKFKGKATLTVDKSSSTAYMQLSSLTSEDSAVYYCGRKSLGVSVLAYWGQGTPVTVSA VL: DIVMTQSHKFMSTSVGDRVSISCTASQDVNAAVAWYQQKPGQSPKLLIYWASTRHTGVPDRFTGSGSGTDYTLTISSVQAEDLALYYCQQHYSTPLTFGAGTKLELK", "MIC in HAI": "> 250 µg/mL"}
{"BINDER": "anti-CotD mouse mAb P6B8 (antibody, V domains shown) VH: QVTLKESGPGILQPSQTLSLTCSFSGFSLSTSGMGVGWIRQPSGKGLEWLSHIWWDDEKRYNPALKSRLTISKDTSSNQVFLKIASVDTADTATYYCARIGDRSGHAGFVYWGQGTLVTVSA VL: DIKMTQSPSSMYASLGERVTITCKASQDINSYLSWFQQKPGKSPKTLIYRANRLVDGVPSRFSGSGSGQDYSLTISSLEYEDMGTYYCLQYDEFPYTFGGGTKLEIK", "MIC in HAI": "> 250 µg/mL"}
